TESTED_TARGET: Dihydrofolate reductase (Homo sapiens)
Sequence (P00374 whole entry): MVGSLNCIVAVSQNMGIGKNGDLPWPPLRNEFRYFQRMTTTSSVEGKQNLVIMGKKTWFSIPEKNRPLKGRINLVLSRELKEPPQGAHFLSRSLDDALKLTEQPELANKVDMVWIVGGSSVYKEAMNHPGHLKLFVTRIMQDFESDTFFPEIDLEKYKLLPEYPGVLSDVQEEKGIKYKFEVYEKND
QUANTITY: IC50

Measured IC50 of Nc1nc(N)c2nc(COc3ccc(C(=O)NC(CCC(=O)O)C(=O)O)cc3)cnc2n1 (stereo unspecified) : 740 nM
